Activity overview
experimentalSystem: Tyrosine-protein kinase Lck (Homo sapiens)
testDetails: Inhibition of LCK (unknown origin) assessed as remaining activity at 3 x 10^-5 M after 120 mins in presence of 33P-ATP (reference value: […]% to […]%)
protocolConditions: at 30 µM
Sequence (P06239 2-509 limits assumed): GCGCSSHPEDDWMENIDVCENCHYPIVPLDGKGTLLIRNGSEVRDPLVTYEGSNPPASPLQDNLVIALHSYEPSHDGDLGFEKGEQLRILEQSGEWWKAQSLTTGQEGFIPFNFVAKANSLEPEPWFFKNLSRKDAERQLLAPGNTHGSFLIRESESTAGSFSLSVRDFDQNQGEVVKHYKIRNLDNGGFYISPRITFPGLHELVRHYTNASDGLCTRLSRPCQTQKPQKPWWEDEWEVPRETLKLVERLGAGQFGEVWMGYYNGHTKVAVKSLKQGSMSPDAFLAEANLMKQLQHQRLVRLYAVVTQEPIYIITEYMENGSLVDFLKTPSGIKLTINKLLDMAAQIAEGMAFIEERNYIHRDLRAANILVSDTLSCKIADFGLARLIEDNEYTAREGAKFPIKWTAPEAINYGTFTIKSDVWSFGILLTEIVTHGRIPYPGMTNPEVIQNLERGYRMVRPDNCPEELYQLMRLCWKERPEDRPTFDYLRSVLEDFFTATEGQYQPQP

{"smilesCode": "COc1cc(/C=N/c2cnc(Nc3ccc(N4CCOCC4)cc3)nc2Oc2ccc(C(F)(F)F)cc2)cc(OC)c1", "Activity": "49.4 to 59.3%"}
{"smilesCode": "COc1cc(/C=N/c2cnc(Nc3ccc(N4CCOCC4)cc3)nc2Oc2ccc(F)cc2)cc(OC)c1", "Activity": "65.3 to 69.2%"}
{"smilesCode": "COc1cc(C)ccc1Oc1nc(Nc2ccc(N3CCOCC3)cc2)ncc1NC(=O)Nc1c(Cl)cccc1Cl", "Activity": "34.8 to 38.1%"}

compound COc1cc(C)ccc1Oc1nc(Nc2ccc(N3CCOCC3)cc2)ncc1/N=C/c1cccc(OC(F)(F)F)c1 , Activity observed: 41.7 to 50.1%

compound COc1cc(/C=N/c2cnc(Nc3ccc(N4CCOCC4)cc3)nc2Oc2cccc(OC)c2)cc(OC)c1 , Activity observed: 24 to 26.5%

###

experimentalSystem: UniProt P06239
testDetails: Inhibition of LCK (unknown origin) assessed as remaining activity at 1 x 10^-5 M after 120 mins in presence of 33P-ATP (reference value: […]% to […]%)
protocolConditions: at 10 µM
observedProperty: Activity

{"smilesCode": "COc1cc(C)ccc1Oc1nc(Nc2ccc(N3CCOCC3)cc2)ncc1/N=C/c1cc(C(F)(F)F)cc(C(F)(F)F)c1", "recordedResult": "55.5 to 56.8%"}
{"smilesCode": "COc1cc(NC(=O)Nc2cnc(Nc3ccc(N4CCOCC4)cc3)nc2Oc2ccc(C(F)(F)F)cc2)cc(OC)c1", "recordedResult": "78.1 to 84.5%"}
{"smilesCode": "COc1cc(Nc2ncc(NC(=O)Nc3c(Cl)cccc3Cl)c(Oc3ccc(C)cc3OC)n2)cc(OC)c1", "recordedResult": "72.6 to 81.8%"}
{"smilesCode": "COc1cc(C)ccc1Oc1nc(Nc2ccc(N3CCOCC3)cc2)ncc1NCc1ccc(Cl)cc1", "recordedResult": "7.08 to 7.66%"}
{"smilesCode": "COc1cc(/C=N/c2cnc(Nc3ccc(N4CCOCC4)cc3)nc2Oc2cccc(OC)c2)cc(OC)c1", "recordedResult": "25.4 to 28.1%"}
{"smilesCode": "COc1cc(C)ccc1Oc1nc(Nc2ccc(N3CCOCC3)cc2)ncc1NCc1cccc(OC(F)(F)F)c1", "recordedResult": "61.3 to 65.9%"}

compound COc1cc(C)ccc1Oc1nc(Nc2ccc(N3CCOCC3)cc2)ncc1NCc1ccc(OC(F)(F)F)cc1 , Activity observed: 43.7 to 45.1%

compound COc1cc(NC(=O)Nc2cnc(Nc3ccc(N4CCOCC4)cc3)nc2Oc2ccc(F)cc2)cc(OC)c1 , Activity observed: 68.9 to 70.1%

###

UniProt P06239 measurements of pIC50, listed per entry.
pIC50: −log10 of the molar value.
observedProperty: pIC50

Example cases with answers are listed next.
{"smilesCode": "COc1cc(C)ccc1Oc1nc(Nc2ccc(N3CCOCC3)cc2)ncc1/N=C/c1ccccc1Cl", "pIC50": 6.65}
{"smilesCode": "COc1cc(Nc2ncc(NC(=O)Nc3c(Cl)cccc3Cl)c(Oc3ccc(C)cc3OC)n2)cc(OC)c1", "pIC50": 4.23}
{"smilesCode": "COc1cc(NC(=O)Nc2cnc(Nc3cc(OC)cc(OC)c3)nc2Oc2ccc(C)cc2OC)cc(OC)c1", "pIC50": 4.38}
{"smilesCode": "COc1cc(C)ccc1Oc1nc(Nc2ccc(N3CCOCC3)cc2)ncc1/N=C/c1ccc(Cl)cc1", "pIC50": 7.27}
{"smilesCode": "COc1cc(/C=N/c2cnc(Nc3ccc(N4CCOCC4)cc3)nc2Oc2ccc(C)cc2OC)cc(OC)c1", "pIC50": 6.97}

[A] COc1ccccc1NC(=O)Nc1cnc(Nc2ccc(N3CCOCC3)cc2)nc1Oc1ccc(C)cc1OC
[B] COc1cc(C)ccc1Oc1nc(Nc2ccc(N3CCOCC3)cc2)ncc1NCc1ccc(Cl)cc1
[C] COc1cc(/C=N/c2cnc(Nc3ccc(N4CCOCC4)cc3)nc2Oc2ccc(F)cc2)cc(OC)c1
Prompt: Rank items: key pIC50, increasing. Put the labels in the requested order and write them down.
Response: A, C, B
